targetUnderTest: DRB5*0101 (DR2w2a) (Homo sapiens, UniProt P01903+Q30154)
Construct: used as sources of human HLA class II molecules; endogenous in cells; host or cells: GM3107 (EBV-transformed homozygous B cell line)
methodSummary: Class II peptide-binding assay, DR2w2a (DR2w2B2);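 note: competitive binding assay: unlabeled peptide inhibiting binding of a radiolabeled probe peptide to purified DR molecules at pH 7.0, IC50 approximating Kd, lower means stronger binding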
testParameters: Table V A) Non Predictions; read-out: Binding Capacity DR2w2a
Ends that are not written are not given here.
reportedMetric: IC50 (nM)
Give the quantity in nM, number only.

Report measured IC50; entry is GPPTALRSFGFAFGYM [Peptide 1136.29]
468

* * *

targetUnderTest: DRB1*0401 (DR4w4) (Homo sapiens, UniProt P01903+P01911, A100K/A169T/F76Y/I96L/K127E/L162R/M171V/N62H/P40V/Q125Y/R42H/S133A/S149N/S66Y/V115G/V209L/W38E)
Construct: used as sources of human HLA class II molecules; endogenous in cells; host or cells: PREISS (EBV-transformed homozygous B cell line)
methodSummary: Class II peptide-binding assay, DR4w4;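 note: unlabeled test peptides compete with a radiolabeled probe peptide for binding to affinity-purified HLA-DR, with DR amount titrated to capture a small fraction of label, IC50 approximating Kd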
testParameters: read-out: DR4w4 nM; Table VIII, In IC50 Format
Square brackets hold non-standard residues; d marks the D form. Peptide text beside a SMILES is read from it.
reportedMetric: pIC50
The quantity pIC50 is defined as the negative base-10 logarithm of the molar concentration.

molecule	reportedMetric	result
CC(C)C[C@H](NC(=O)[C@H](CCCCN)NC(=O)[C@H](CC(C)C)NC(=O)[C@@H](NC(=O)[C@H](CC(N)=O)NC(=O)[C@H](CCC(N)=O)NC(=O)[C@H](CCCCN)NC(=O)[C@@H](NC(=O)[C@H](Cc1ccc(O)cc1)NC(=O)[C@H](CCCCN)NC(=O)[C@@H]1CCCN1C(=O)[C@@H](N)CS)C(C)C)[C@@H](C)O)C(=O)N[C@@H](C)C(=O)N[C@H](C(=O)NCC(=O)O)[C@@H](C)O [Peptide 852.01]	pIC50	7.52

For the next question, use this molecule.
Consider the molecule CC(C)C[C@H](NC(=O)[C@@H](NC(=O)[C@H](C)NC(=O)[C@H](C)NC(=O)[C@H](C)NC(=O)[C@H](CCCCN)NC(=O)[C@H](Cc1ccccc1)NC(=O)[C@H](C)NC(=O)[C@@H](C)N)[C@@H](C)O)C(=O)N[C@@H](CCCCN)C(=O)N[C@@H](C)C(=O)N[C@@H](C)C(=O)N[C@H](C)C(N)=O [Peptide 871.08] (H-[dA]AFKAAATLKAA[dA]-NH2) . State its measured pIC50.
8.72

* * *

targetUnderTest: DRB1*0101 (DR1) (Homo sapiens, UniProt P01903+P01911, A100R/D57E/F55L/F60I/F76Y/I96L/L162R/M171V/P40L/Q125E/R42F/V115G/Y59C)
Construct: used as sources of human HLA class II molecules; endogenous in cells; host or cells: LG2 (EBV-transformed homozygous B cell line)
methodSummary: Class II peptide-binding assay, DR1
testParameters: Table V A) Non Predictions; read-out: Binding Capacity DR1
Ends that are not written are not given here.
reportedMetric: IC50

Illustrative cases are given below, each with its answer.
seq	result
WLFPRFKFVWVTYASW [Peptide 1136.44.01]	526 nM
GPPTALRSFGFAFGYM [Peptide 1136.29]	32 nM

Lab note: next sequence to report on.
Please report the measured IC50 for LFHYYFLSEKAPGSTV [Peptide 1136.04]
24 nM

* * *

targetUnderTest: DRB1*0101 (DR1) (Homo sapiens, UniProt P01903+P01911, A100R/D57E/F55L/F60I/F76Y/I96L/L162R/M171V/P40L/Q125E/R42F/V115G/Y59C)
Construct: used as sources of human HLA class II molecules; endogenous in cells; host or cells: LG2 (EBV-transformed homozygous B cell line)
methodSummary: Class II peptide-binding assay, DR1
testParameters: read-out: DR1 nM (In IC50 Format); purified HLA DR1
Ends that are not written are not given here.
reportedMetric: log10(IC50) (log10 of the value in nM)
Please keep in mind that the values are log10 of IC50 expressed in nM.

In the examples that follow, each entry is paired with its recorded log10(IC50).
substance	log10(IC50)
YARFQSQTTKKAKT-NH2 [Peptide 717.20]	1.05
CPIAIMSALAMVYLGAKDS [Peptide 705.04]	1.73
YARFQSQATLKAKT-NH2 [Peptide 717.53]	0.30
YAAFQSQTTLKAKT-NH2 [Peptide 717.30]	0.94
YARFQRQTTLKIAT [Peptide 716.01]	0.46

Note log10(IC50) for the substance shown: YARFQSQSTLKAKT-NH2 [Peptide 717.16]
0.78

Supply reported log10(IC50) belonging to this substance: TSATQRLANSLVHSSNNFG [Peptide 735.02]
2.05

* * *

targetUnderTest: DRB1*0101 (DR1) (Homo sapiens, UniProt P01903+P01911, A100R/D57E/F55L/F60I/F76Y/I96L/L162R/M171V/P40L/Q125E/R42F/V115G/Y59C)
Construct: used as sources of human HLA class II molecules; endogenous in cells; host or cells: LG2 (EBV-transformed homozygous B cell line)
methodSummary: Class II peptide-binding assay, DR1;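 note: competition assay: unlabeled test peptides inhibit binding of a radiolabeled probe peptide to purified DR, with half-maximal inhibition taken as an approximate dissociation constant Kd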
testParameters: read-out: DR1 nM (In IC50 Format); purified HLA DR1
pIC50: −log10 of the molar value. Square brackets hold non-standard residues; d marks the D form. Peptide text beside a SMILES is read from it.
Short version: pIC50 at least 8 is Condition met, less is Condition not met.

Here are 9 compounds together with their reported answers.
compound	category
CC(C)C[C@H](NC(=O)[C@@H](NC(=O)[C@@H](NC(=O)[C@H](CCC(N)=O)NC(=O)[C@H](CCCCN)NC(=O)[C@H](CC(=O)O)NC(=O)[C@H](Cc1ccccc1)NC(=O)[C@@H](CCCNC(=N)N)NC(=O)[C@H](C)NC(=O)[C@H](N)Cc1ccc(O)cc1)[C@@H](C)O)[C@@H](C)O)C(=O)N[C@@H](CCCCN)C(=O)N[C@@H](C)C(=O)N[C@@H](C)C(=O)N[C@H](C)C(=O)O [Peptide 781.19] (H-[dY]A[dR]FDKQTTLKAA[dA]-OH)	Condition not met
CC[C@H](C)[C@H](NC(=O)[C@H](CCCNC(=N)N)NC(=O)[C@H](CO)NC(=O)[C@H](Cc1ccccc1)NC(=O)[C@@H](NC(=O)[C@H](CO)NC(=O)[C@H](CO)NC(=O)[C@H](CC(C)C)NC(=O)[C@@H]1CCCN1C(=O)[C@H](CO)NC(=O)[C@H](C)NC(=O)[C@@H](NC(=O)[C@@H](NC(=O)[C@H](CC(C)C)NC(=O)[C@@H](NC(=O)[C@@H]1CCCN1C(=O)[C@@H](N)CC(N)=O)C(C)C)[C@@H](C)O)[C@@H](C)O)[C@@H](C)CC)C(=O)O [Peptide 801.02]	Condition not met
CC(C)C[C@H](NC(=O)[C@@H](NC(=O)[C@@H](NC(=O)[C@H](CCC(N)=O)NC(=O)[C@H](CCCNC(=N)N)NC(=O)[C@H](CCC(N)=O)NC(=O)[C@H](Cc1ccccc1)NC(=O)[C@H](C)NC(=O)[C@H](C)NC(=O)[C@H](N)Cc1ccc(O)cc1)[C@@H](C)O)[C@@H](C)O)C(=O)N[C@@H](CCCCN)C(=O)N[C@@H](C)C(=O)N[C@@H](C)C(=O)N[C@H](C)C(N)=O [Peptide 781.16] (H-[dY]AAFQRQTTLKAA[dA]-NH2)	Condition met
CC(C)C[C@H](NC(=O)[C@@H](NC(=O)[C@@H](NC(=O)[C@H](CCC(N)=O)NC(=O)[C@H](CCCNC(=N)N)NC(=O)[C@H](CCC(N)=O)NC(=O)[C@H](Cc1ccccc1)NC(=O)[C@H](CCCNC(=N)N)NC(=O)[C@H](C)NC(=O)[C@H](N)Cc1ccc(O)cc1)[C@@H](C)O)[C@@H](C)O)C(=O)N[C@@H](CCCCN)C(=O)N[C@@H](C)C(=O)N[C@@H](C)C(=O)N[C@H](C)C(N)=O [Peptide 781.09] (H-[dY]ARFQRQTTLKAA[dA]-NH2)	Condition met
CC(C)C[C@H](NC(=O)[C@@H](NC(=O)[C@@H](NC(=O)[C@H](CCC(N)=O)NC(=O)[C@H](CCCNC(=N)N)NC(=O)[C@H](CCC(N)=O)NC(=O)[C@@H](N)Cc1ccccc1)[C@@H](C)O)[C@@H](C)O)C(=O)N[C@@H](CCCCN)C(=O)N[C@@H](C)C(=O)N[C@@H](C)C(=O)N[C@H](C)C(N)=O [Peptide 781.06] (H-FQRQTTLKAA[dA]-NH2)	Condition not met
CSCC[C@H](NC(=O)[C@H](CC(C)C)NC(=O)[C@H](CCC(=O)O)NC(=O)CNC(=O)[C@H](Cc1c[nH]c2ccccc12)NC(=O)[C@@H](N)CS)C(=O)N[C@H](C(=O)N[C@@H](CC(C)C)C(=O)N[C@@H](C)C(=O)N[C@H](C(=O)N[C@@H](Cc1c[nH]c2ccccc12)C(=O)N[C@H](C(=O)NCC(=O)N[C@H](C(=O)N[C@@H](CC(N)=O)C(=O)N[C@@H](CC(C)C)C(=O)N[C@@H](CCC(=O)O)C(=O)N[C@@H](CC(=O)O)C(=O)O)C(C)C)C(C)C)[C@@H](C)O)[C@@H](C)O [Peptide 802.02]	Condition not met
C[C@H](NC(=O)[C@H](C)NC(=O)[C@H](C)NC(=O)[C@H](Cc1ccc(O)cc1)NC(=O)[C@H](C)NC(=O)[C@@H](C)N)C(=O)N[C@@H](C)C(=O)N[C@H](C(=O)N[C@@H](C)C(=O)N[C@@H](CCCCN)C(=O)N[C@@H](C)C(=O)N[C@@H](C)C(=O)N[C@H](C)C(N)=O)[C@@H](C)O [Peptide 762.02] (H-[dA]AYAAAATAKAA[dA]-NH2)	Condition met
C[C@H](NC(=O)[C@H](C)NC(=O)[C@H](C)NC(=O)[C@H](C)NC(=O)[C@H](Cc1ccc(O)cc1)NC(=O)[C@H](C)NC(=O)[C@@H](C)N)C(=O)N[C@@H](C)C(=O)N[C@@H](C)C(=O)N[C@@H](CCCCN)C(=O)N[C@@H](C)C(=O)N[C@@H](C)C(=O)N[C@H](C)C(N)=O [Peptide 762.01] (H-[dA]AYAAAAAAKAA[dA]-NH2)	Condition met
CC[C@H](C)[C@H](NC(=O)[C@H](C)NC(=O)CNC(=O)[C@H](Cc1ccccc1)NC(=O)[C@H](CC(N)=O)NC(=O)[C@H](CC(N)=O)NC(=O)[C@H](N)CO)C(=O)N[C@@H](CC(C)C)C(=O)N[C@@H](CO)C(=O)N[C@@H](CO)C(=O)N[C@H](C(=O)N[C@@H](CC(N)=O)C(=O)N[C@H](C(=O)NCC(N)=O)C(C)C)[C@@H](C)O [Peptide 735.05] (H-[dS]NNFGAILSSTNVG-NH2)	Condition not met

Now take the following compound into account.
Given the entry CSCC[C@H](N)C(=O)NCC(=O)N[C@@H](CCC(N)=O)C(=O)N[C@@H](CC(N)=O)C(=O)N[C@@H](CC(C)C)C(=O)N[C@@H](CO)C(=O)N[C@H](C(=O)N[C@@H](CO)C(=O)N[C@@H](CC(N)=O)C(=O)N1CCC[C@H]1C(=O)N[C@@H](CC(C)C)C(=O)NCC(=O)N[C@@H](Cc1ccccc1)C(=O)N[C@@H](Cc1ccccc1)C(=O)N1CCC[C@H]1C(=O)N[C@@H](CC(=O)O)C(=O)N[C@@H](Cc1c[nH]cn1)C(=O)O)[C@@H](C)O [Peptide 800.01] , answer whether its pIC50 meets or surpasses 8.
Condition not met
